- Tested on: HEK293T-Rex XBP1-RLuc
- procedure-summary: EC50 for XBP1-RLuc reporter activation
- details: 18 h
readout-name: EC50 for XBP1-RLuc reporter activation

Which EC50 for XBP1-RLuc reporter activation reading was recorded for the molecule N#C/C(=C\c1ccc(O)c(O)c1)c1nc2ccccc2[nH]1 ?
> 16.9 µM

----------
- Test system: HEK293T-Rex ERSE-FLuc
- procedure-summary: maximal ERSE-FLuc activation from dose-response fit, relative to thapsigargin (% of thapsigargin); higher = stronger activation
- details: 18 h
readout-name: maximal ERSE-FLuc activation
Could you respond with only the numeric value?

Worked examples follow.
smiles-code	maximal ERSE-FLuc activation
CCN(CC)c1ccc2cc(-c3nc4ccccc4n3C)c(=O)oc2c1	22.8
C=CCNC(=O)c1sc2nc3cc(C)c(C)cc3cc2c1N	8.68

Moving on to the next compound.
Which maximal ERSE-FLuc activation reading was recorded for the compound NC(=O)c1c(NC(=O)COc2ccccc2)sc2c1CCC2 ?
16.2

----------
- Tested on: HEK293T-Rex ERSE-FLuc
- procedure-summary: maximal ERSE-FLuc activation from dose-response fit, relative to thapsigargin (% of thapsigargin); higher = stronger activation
- details: 18 h
The label depends only on maximal ERSE-FLuc activation: true (1) if it is at least 20, false (0) if it is smaller.

Check out these entries, answers already filled in.
compound	category-label
O=C(Nc1ccc(Cl)cn1)c1ccc(Cl)cc1Cl	true (1)
O=C1N/C(=C\c2ccc(O)cc2)C(O)=C1C=NCc1ccccc1	true (1)
COc1ccccc1-c1cc(C(=O)Nc2cc(C)ccc2O)no1	true (1)
Oc1ccc(/C=N/Nc2cccc3cccnc23)c(O)c1	true (1)
C=CCNC(=O)c1cc(-c2ccccc2)on1	true (1)

Record CCCCNc1ncnc2c1cnn2-c1ccc(Cl)cc1 ; criterion: maximal ERSE-FLuc activation no lower than 20. Met?
true (1)

Record CCOc1cccc(C(=O)Nc2ccc(-c3nc4ccc(C(=O)c5ccccc5)cc4[nH]3)cc2)c1 ; criterion: maximal ERSE-FLuc activation no lower than 20. Met?
true (1)

Record COc1ccc(/C(C)=N/OC/C(O)=C(\C#N)c2nc3ccccc3[nH]2)cc1OC ; criterion: maximal ERSE-FLuc activation no lower than 20. Met?
false (0)

Record Cc1ccc(O)c(-c2cc(C(F)(F)C(F)F)no2)c1 ; criterion: maximal ERSE-FLuc activation no lower than 20. Met?
true (1)

Record Cc1ccc(O)c(NC(=O)c2cc(-c3ccco3)on2)c1 ; criterion: maximal ERSE-FLuc activation no lower than 20. Met?
true (1)

Record O=C1c2cc(O)ccc2-c2ccc(O)cc21 ; criterion: maximal ERSE-FLuc activation no lower than 20. Met?
true (1)

----------
EC50 for XBP1-RLuc reporter activation listing for selected compounds.
- Test system: HEK293T-Rex XBP1-RLuc
- procedure-summary: EC50 for XBP1-RLuc reporter activation
- details: 18 h

Worked examples follow.
compound	result
O=c1/c(=C/c2ccc(O)c(O)c2)sc2nc3ccccc3n12	> 16.9 µM
O=C(N/N=C/c1cccc(O)c1O)c1ccccc1I	> 16.9 µM
COc1ccccc1OCC(=O)Nc1cc(C)ccc1O	> 16.9 µM
Cc1ccc2nc(/C(C#N)=C/c3ccc(O)cc3)[nH]c2c1	> 16.9 µM

Which EC50 for XBP1-RLuc reporter activation reading was recorded for the compound Nc1ccc2nc(-c3ccc(Cl)cc3)[nH]c2c1 ?
> 16.9 µM

Which EC50 for XBP1-RLuc reporter activation reading was recorded for the compound COc1ccc2[nH]c3c(N4CCCCC4)ncnc3c2c1 ?
> 17.1 µM

Which EC50 for XBP1-RLuc reporter activation reading was recorded for the compound O=C1N/C(=C\c2ccc(O)cc2)C(O)=C1C=NCc1ccccc1 ?
2.96 µM

Which EC50 for XBP1-RLuc reporter activation reading was recorded for the compound N#CC1=C(N)Oc2c(ccc3ccccc23)C1c1ccsc1 (centres undefined) ?
> 18.3 µM

Which EC50 for XBP1-RLuc reporter activation reading was recorded for the compound CNc1ccc2oc(C[C@H]3O[C@@]4(CC[C@H]3C)O[C@H]([C@H](C)C(=O)c3ccc[nH]3)[C@H](C)C[C@H]4C)nc2c1C(=O)O ?
4.49 µM

Which EC50 for XBP1-RLuc reporter activation reading was recorded for the compound CCCCNC(=O)c1cc(-c2ccc(F)cc2)on1 ?
> 16.9 µM

Which EC50 for XBP1-RLuc reporter activation reading was recorded for the compound Nc1nc(Nc2ccc(Cl)cc2)nc2ccccc12 ?
8.74 µM

Which EC50 for XBP1-RLuc reporter activation reading was recorded for the compound O=C(Nc1nc2c(s1)CCCC2)c1cccc2ccccc12 ?
> 18.2 µM

Which EC50 for XBP1-RLuc reporter activation reading was recorded for the compound COc1cccc(C(=O)/C=C/Nc2cc(C)ccc2O)c1 ?
6.99 µM

Which EC50 for XBP1-RLuc reporter activation reading was recorded for the compound c1ccc2cc(-c3cnnc(N4CCOCC4)n3)ccc2c1 ?
> 16.9 µM

Which EC50 for XBP1-RLuc reporter activation reading was recorded for the compound Cc1ccc(/C=N/NC(=O)c2cccc(Cl)c2)cc1 ?
> 16.9 µM

Which EC50 for XBP1-RLuc reporter activation reading was recorded for the compound O=C(CCCCCCC(=O)Nc1ccccc1)NO ?
> 16.9 µM
